# subjectOfTest: panel of more than 300 wild-type and mutant kinases (313 kinase panel) (Homo sapiens)
# Sequence (P00540 1-346): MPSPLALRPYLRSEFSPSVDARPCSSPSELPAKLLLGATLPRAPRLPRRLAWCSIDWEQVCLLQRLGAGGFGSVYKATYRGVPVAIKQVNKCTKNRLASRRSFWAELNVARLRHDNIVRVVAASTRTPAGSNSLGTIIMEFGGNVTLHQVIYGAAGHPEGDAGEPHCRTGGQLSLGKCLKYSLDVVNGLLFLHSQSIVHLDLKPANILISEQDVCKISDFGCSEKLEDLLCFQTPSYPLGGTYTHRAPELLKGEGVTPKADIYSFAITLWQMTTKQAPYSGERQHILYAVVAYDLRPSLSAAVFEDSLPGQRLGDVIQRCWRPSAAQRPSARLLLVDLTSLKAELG
# assayInfo: Kinase profiling in a biochemical assay panel (mobility shift assays and ELISA), %-inhibition at 1 μM; selectivity entropy
# conditionSet: kinase MOS; 1 μM
measurementLabel: %-inhibition of MOS

compound: CO[C@H]1C[C@@H]2CC[C@@H](C)[C@@](O)(O2)C(=O)C(=O)N2CCCC[C@H]2C(=O)O[C@H]([C@H](C)C[C@@H]2CC[C@@H](OCCO)[C@H](OC)C2)CC(=O)[C@H](C)/C=C(\C)[C@@H](O)[C@@H](OC)C(=O)[C@H](C)C[C@H](C)/C=C/C=C/C=C/1C [everolimus]
%-inhibition of MOS: 3.3%

compound: COc1cc2c(Nc3ccc(Br)cc3F)ncnc2cc1OCC1CCN(C)CC1 [vandetanib]
%-inhibition of MOS: 9%

Would you kindly look at the next entry?
QUERY: For the compound C[C@@H](Oc1cc(-c2cnn(C3CCNCC3)c2)cnc1N)c1c(Cl)ccc(F)c1Cl [crizotinib] , report %-inhibition of MOS.
RESULT: 1.25%

====

# subjectOfTest: panel of more than 300 wild-type and mutant kinases (313 kinase panel) (Homo sapiens, UniProt P42685)
# Sequence (P42685 whole entry, change not shown): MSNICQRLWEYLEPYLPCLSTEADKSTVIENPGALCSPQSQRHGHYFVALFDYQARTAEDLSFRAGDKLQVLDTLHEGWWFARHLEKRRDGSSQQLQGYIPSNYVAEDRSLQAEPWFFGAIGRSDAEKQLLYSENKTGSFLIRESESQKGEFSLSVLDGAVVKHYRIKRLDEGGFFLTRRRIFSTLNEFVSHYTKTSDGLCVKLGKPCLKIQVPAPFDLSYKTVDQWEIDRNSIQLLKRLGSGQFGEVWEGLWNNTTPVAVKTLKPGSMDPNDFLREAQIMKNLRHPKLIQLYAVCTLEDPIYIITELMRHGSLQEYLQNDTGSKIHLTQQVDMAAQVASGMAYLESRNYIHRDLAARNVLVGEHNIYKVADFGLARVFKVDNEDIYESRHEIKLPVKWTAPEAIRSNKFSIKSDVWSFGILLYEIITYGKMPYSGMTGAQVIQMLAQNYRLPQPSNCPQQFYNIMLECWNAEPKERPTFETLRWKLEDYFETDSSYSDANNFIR
# assayInfo: Kinase profiling in a biochemical assay panel (mobility shift assays and ELISA), %-inhibition at 1 μM; selectivity entropy
# conditionSet: kinase FRK; compound at 1 μM
measurementLabel: %-inhibition of FRK (%)
Numbers only, in %.

smilesNotation: CNC(=O)c1cc(Oc2ccc(NC(=O)Nc3ccc(Cl)c(C(F)(F)F)c3)c(F)c2)ccn1
%-inhibition of FRK (%): 90
//
smilesNotation: Cc1cn(-c2cc(NC(=O)c3ccc(C)c(Nc4nccc(-c5cccnc5)n4)c3)cc(C(F)(F)F)c2)cn1
%-inhibition of FRK (%): 70
//
smilesNotation: COc1cc(Nc2c(C#N)cnc3cc(OCCCN4CCN(C)CC4)c(OC)cc23)c(Cl)cc1Cl
%-inhibition of FRK (%): 94
//
smilesNotation: CC(=O)Nc1cccc(-n2c(=O)n(C3CC3)c(=O)c3c(Nc4ccc(I)cc4F)n(C)c(=O)c(C)c32)c1
%-inhibition of FRK (%): -3

Please give %-inhibition of FRK, item by item, for the list that follows.
1. CO[C@H]1C[C@@H]2CC[C@@H](C)[C@@](O)(O2)C(=O)C(=O)N2CCCC[C@H]2C(=O)O[C@H]([C@H](C)C[C@@H]2CC[C@@H](OCCO)[C@H](OC)C2)CC(=O)[C@H](C)/C=C(\C)[C@@H](O)[C@@H](OC)C(=O)[C@H](C)C[C@H](C)/C=C/C=C/C=C/1C
2. COc1cc2c(Nc3ccc(Br)cc3F)ncnc2cc1OCC1CCN(C)CC1
3. C[C@@H](Oc1cc(-c2cnn(C3CCNCC3)c2)cnc1N)c1c(Cl)ccc(F)c1Cl
4. N#CC[C@H](C1CCCC1)n1cc(-c2ncnc3[nH]ccc23)cn1

RESULT:
1.26
79
26
7

====

Field: %-inhibition of TTK. Provide a value for each of the compounds that follow.
# subjectOfTest: panel of more than 300 wild-type and mutant kinases (313 kinase panel) (Homo sapiens, UniProt P33981)
# Sequence (P33981 whole entry, change not shown): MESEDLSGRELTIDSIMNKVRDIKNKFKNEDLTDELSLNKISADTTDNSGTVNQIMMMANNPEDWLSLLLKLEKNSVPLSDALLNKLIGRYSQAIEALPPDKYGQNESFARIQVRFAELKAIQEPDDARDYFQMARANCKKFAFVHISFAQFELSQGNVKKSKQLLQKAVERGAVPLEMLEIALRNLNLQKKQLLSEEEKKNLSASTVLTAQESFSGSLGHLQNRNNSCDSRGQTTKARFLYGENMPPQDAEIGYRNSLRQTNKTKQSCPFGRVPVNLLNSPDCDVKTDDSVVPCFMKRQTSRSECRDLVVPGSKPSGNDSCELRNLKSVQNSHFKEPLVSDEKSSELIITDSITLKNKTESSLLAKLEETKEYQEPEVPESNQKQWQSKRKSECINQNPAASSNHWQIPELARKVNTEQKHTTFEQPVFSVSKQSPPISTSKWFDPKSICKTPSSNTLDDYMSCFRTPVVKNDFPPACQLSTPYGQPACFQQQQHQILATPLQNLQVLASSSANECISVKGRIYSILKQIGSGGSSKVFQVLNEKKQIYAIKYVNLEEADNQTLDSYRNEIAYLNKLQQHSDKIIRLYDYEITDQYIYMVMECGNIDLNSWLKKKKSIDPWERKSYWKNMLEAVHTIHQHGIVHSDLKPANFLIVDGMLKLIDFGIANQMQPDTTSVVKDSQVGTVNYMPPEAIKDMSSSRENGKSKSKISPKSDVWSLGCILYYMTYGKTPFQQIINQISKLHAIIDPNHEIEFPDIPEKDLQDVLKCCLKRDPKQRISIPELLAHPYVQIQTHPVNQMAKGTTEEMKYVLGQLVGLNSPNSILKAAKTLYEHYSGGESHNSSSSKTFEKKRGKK
# assayInfo: Kinase profiling in a biochemical assay panel (mobility shift assays and ELISA), %-inhibition at 1 μM; selectivity entropy
# conditionSet: kinase TTK; compound at 1 μM
One number for each entry, in %.

compound: CO[C@H]1C[C@@H]2CC[C@@H](C)[C@@](O)(O2)C(=O)C(=O)N2CCCC[C@H]2C(=O)O[C@H]([C@H](C)C[C@@H]2CC[C@@H](OCCO)[C@H](OC)C2)CC(=O)[C@H](C)/C=C(\C)[C@@H](O)[C@@H](OC)C(=O)[C@H](C)C[C@H](C)/C=C/C=C/C=C/1C
unitsLabel: %
obsValue: -2.68
--
compound: O=S(=O)(c1cccc2cnccc12)N1CCCNCC1
unitsLabel: %
obsValue: -11
--
compound: COc1cc2c(Nc3ccc(Br)cc3F)ncnc2cc1OCC1CCN(C)CC1
unitsLabel: %
obsValue: 3
--
compound: CC(C)(C)c1nc(-c2cccc(NS(=O)(=O)c3c(F)cccc3F)c2F)c(-c2ccnc(N)n2)s1
unitsLabel: %
obsValue: -22

Please give %-inhibition of TTK, item by item, for the list that follows.
1. CC(=O)Nc1cccc(-n2c(=O)n(C3CC3)c(=O)c3c(Nc4ccc(I)cc4F)n(C)c(=O)c(C)c32)c1
2. Cc1cn(-c2cc(NC(=O)c3ccc(C)c(Nc4nccc(-c5cccnc5)n4)c3)cc(C(F)(F)F)c2)cn1
3. CNC(=O)c1cc(Oc2ccc(NC(=O)Nc3ccc(Cl)c(C(F)(F)F)c3)c(F)c2)ccn1

RESULT:
1: 59; 2: -8; 3: 0.186

Please give %-inhibition of TTK, item by item, for the list that follows.
1. COc1cc2nccc(Oc3ccc(NC(=O)C4(C(=O)Nc5ccc(F)cc5)CC4)cc3)c2cc1OC [cabozantinib]
2. N#CC[C@H](C1CCCC1)n1cc(-c2ncnc3[nH]ccc23)cn1
3. Cc1ccc(Nc2nccc(N(C)c3ccc4c(C)n(C)nc4c3)n2)cc1S(N)(=O)=O
4. CCCS(=O)(=O)Nc1ccc(F)c(C(=O)c2c[nH]c3ncc(-c4ccc(Cl)cc4)cc23)c1F

RESULT:
2.75
2
31
-14

====

Field: %-inhibition of WNK3. Provide a value for each of the compounds that follow.
# subjectOfTest: panel of more than 300 wild-type and mutant kinases (313 kinase panel) (Homo sapiens, UniProt Q9BYP7)
# Sequence (Q9BYP7 whole entry, change not shown): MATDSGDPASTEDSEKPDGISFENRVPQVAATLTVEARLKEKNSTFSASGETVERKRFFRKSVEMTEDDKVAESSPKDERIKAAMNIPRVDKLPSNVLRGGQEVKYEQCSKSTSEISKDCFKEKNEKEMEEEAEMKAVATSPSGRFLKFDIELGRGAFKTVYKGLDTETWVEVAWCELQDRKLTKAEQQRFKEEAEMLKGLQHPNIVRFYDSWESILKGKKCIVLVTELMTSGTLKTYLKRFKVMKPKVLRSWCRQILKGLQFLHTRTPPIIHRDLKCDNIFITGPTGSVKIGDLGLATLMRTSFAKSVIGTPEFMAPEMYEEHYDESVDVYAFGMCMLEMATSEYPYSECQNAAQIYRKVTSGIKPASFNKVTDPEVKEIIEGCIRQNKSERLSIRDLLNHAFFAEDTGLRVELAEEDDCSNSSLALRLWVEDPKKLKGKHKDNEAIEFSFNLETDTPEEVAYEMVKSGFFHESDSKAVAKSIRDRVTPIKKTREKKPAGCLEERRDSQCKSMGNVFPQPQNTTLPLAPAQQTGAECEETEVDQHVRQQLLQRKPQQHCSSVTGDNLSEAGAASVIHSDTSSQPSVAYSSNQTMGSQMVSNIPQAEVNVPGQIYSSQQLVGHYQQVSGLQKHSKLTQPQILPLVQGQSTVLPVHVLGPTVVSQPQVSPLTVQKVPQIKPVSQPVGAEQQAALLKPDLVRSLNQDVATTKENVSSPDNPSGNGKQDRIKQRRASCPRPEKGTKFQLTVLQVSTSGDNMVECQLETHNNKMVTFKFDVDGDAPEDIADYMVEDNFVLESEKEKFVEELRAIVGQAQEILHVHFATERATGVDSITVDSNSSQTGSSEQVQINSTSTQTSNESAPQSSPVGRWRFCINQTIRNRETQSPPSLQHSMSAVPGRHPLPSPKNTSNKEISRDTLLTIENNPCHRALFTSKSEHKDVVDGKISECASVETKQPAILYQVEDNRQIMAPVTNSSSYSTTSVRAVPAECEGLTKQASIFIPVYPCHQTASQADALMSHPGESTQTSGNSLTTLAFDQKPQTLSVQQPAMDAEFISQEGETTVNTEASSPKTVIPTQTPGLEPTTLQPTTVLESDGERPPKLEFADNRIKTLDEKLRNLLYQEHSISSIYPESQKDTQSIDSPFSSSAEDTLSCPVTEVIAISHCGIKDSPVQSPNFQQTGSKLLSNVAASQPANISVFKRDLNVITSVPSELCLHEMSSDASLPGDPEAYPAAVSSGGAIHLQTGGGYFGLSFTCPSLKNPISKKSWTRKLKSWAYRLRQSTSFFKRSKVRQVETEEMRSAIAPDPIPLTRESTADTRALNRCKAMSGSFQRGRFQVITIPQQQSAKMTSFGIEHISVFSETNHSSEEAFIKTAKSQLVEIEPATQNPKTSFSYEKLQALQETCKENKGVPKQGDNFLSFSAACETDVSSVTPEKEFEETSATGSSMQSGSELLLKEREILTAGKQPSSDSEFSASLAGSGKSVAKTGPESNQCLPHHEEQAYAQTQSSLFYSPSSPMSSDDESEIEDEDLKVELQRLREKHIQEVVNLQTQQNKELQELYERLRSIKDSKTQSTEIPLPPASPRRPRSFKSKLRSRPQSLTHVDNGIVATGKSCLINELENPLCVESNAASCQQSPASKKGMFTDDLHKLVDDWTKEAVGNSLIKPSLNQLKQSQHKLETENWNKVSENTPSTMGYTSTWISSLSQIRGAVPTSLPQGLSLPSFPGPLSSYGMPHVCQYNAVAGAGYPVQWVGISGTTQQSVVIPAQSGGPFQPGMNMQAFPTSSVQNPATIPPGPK
# assayInfo: Kinase profiling in a biochemical assay panel (mobility shift assays and ELISA), %-inhibition at 1 μM; selectivity entropy
# conditionSet: kinase WNK3; compound at 1 μM

Worked cases, %-inhibition of WNK3 given:
compound: COc1cc2c(Nc3ccc(Br)cc3F)ncnc2cc1OCC1CCN(C)CC1
%-inhibition of WNK3: -7%
--
compound: COc1cc2nccc(Oc3ccc(NC(=O)C4(C(=O)Nc5ccc(F)cc5)CC4)cc3)c2cc1OC [cabozantinib]
%-inhibition of WNK3: 20%
--
compound: N#CC[C@H](C1CCCC1)n1cc(-c2ncnc3[nH]ccc23)cn1
%-inhibition of WNK3: -8%
--
compound: CCCS(=O)(=O)Nc1ccc(F)c(C(=O)c2c[nH]c3ncc(-c4ccc(Cl)cc4)cc23)c1F
%-inhibition of WNK3: 53%
--
compound: Cc1ccc(C(=O)Nc2ccc(CN3CCN(C)CC3)c(C(F)(F)F)c2)cc1C#Cc1cnc2cccnn12
%-inhibition of WNK3: 0.73%

Please give %-inhibition of WNK3, item by item, for the list that follows.
1. Cc1cn(-c2cc(NC(=O)c3ccc(C)c(Nc4nccc(-c5cccnc5)n4)c3)cc(C(F)(F)F)c2)cn1
2. COc1cc(Nc2c(C#N)cnc3cc(OCCCN4CCN(C)CC4)c(OC)cc23)c(Cl)cc1Cl
3. CC(C)(C)c1nc(-c2cccc(NS(=O)(=O)c3c(F)cccc3F)c2F)c(-c2ccnc(N)n2)s1
4. O=S(=O)(c1cccc2cnccc12)N1CCCNCC1
5. CO[C@H]1C[C@@H]2CC[C@@H](C)[C@@](O)(O2)C(=O)C(=O)N2CCCC[C@H]2C(=O)O[C@H]([C@H](C)C[C@@H]2CC[C@@H](OCCO)[C@H](OC)C2)CC(=O)[C@H](C)/C=C(\C)[C@@H](O)[C@@H](OC)C(=O)[C@H](C)C[C@H](C)/C=C/C=C/C=C/1C
6. CNC(=O)c1cc(Oc2ccc(NC(=O)Nc3ccc(Cl)c(C(F)(F)F)c3)c(F)c2)ccn1
7. CC(=O)Nc1cccc(-n2c(=O)n(C3CC3)c(=O)c3c(Nc4ccc(I)cc4F)n(C)c(=O)c(C)c32)c1

RESULT:
1. -7%
2. 13%
3. 1.34%
4. 0.446%
5. -12%
6. -10%
7. 1%

Please give %-inhibition of WNK3, item by item, for the list that follows.
1. Cc1ccc(Nc2nccc(N(C)c3ccc4c(C)n(C)nc4c3)n2)cc1S(N)(=O)=O
2. CO[C@H]1C[C@@H]2CC[C@@H](C)[C@@](O)(O2)C(=O)C(=O)N2CCCC[C@H]2C(=O)O[C@H]([C@H](C)C[C@@H]2CC[C@@H](OC(=O)C(C)(CO)CO)[C@H](OC)C2)CC(=O)[C@H](C)/C=C(\C)[C@@H](O)[C@@H](OC)C(=O)[C@H](C)C[C@H](C)/C=C/C=C/C=C/1C
3. C[C@@H](Oc1cc(-c2cnn(C3CCNCC3)c2)cnc1N)c1c(Cl)ccc(F)c1Cl

RESULT:
8%
-13%
-8%

Each recorded value in this set is attributed to paper PMC3961306.
